System: Bacillus subtilis
Method notes: Antibacterial activity against Bacillus subtilis subsp. subtilis str. 168 at 0.2 umol/disk after 24 hrs by agar plate diffusion assay
Format: functional
Consider the following molecules; for each one, report its inhibition zone (IZ).
Expressed in mm, but write only the number.

Query inhibition zone (IZ) for `Nc1nc([C@H]2[C@H](CNC(=O)c3cc(Br)c[nH]3)[C@@H](CNC(=O)c3cc(Br)c[nH]3)[C@@H]2C(=O)O)c[nH]1.O=C(O)C(F)(F)F`
9

Provide measured inhibition zone (IZ) value, entry: `Nc1nc([C@@H]2c3[nH]c(N)nc3C[C@H](CNC(=O)c3cc(Br)c[nH]3)[C@H]2CNC(=O)c2cc(Br)c[nH]2)c[nH]1.O=C(O)C(F)(F)F.O=C(O)C(F)(F)F`
14

Please list inhibition zone (IZ) recorded for the molecule `Cl.Cl.Nc1ncc([C@H]2[C@H](CNC(=O)c3ccc[nH]3)[C@@H](CNC(=O)c3ccc[nH]3)[C@@H]2c2cnc(N)[nH]2)[nH]1`
10

Give the value of inhibition zone (IZ) reported for the following: `COC(=O)[C@H]1[C@H](CNC(=O)c2cc(Br)c[nH]2)[C@@H](CNC(=O)c2cc(Br)c[nH]2)[C@@H]1c1c[nH]c(N)n1.O=C(O)C(F)(F)F`
9

Could you please provide reported inhibition zone (IZ) for Nc1nc([C@H]2[C@H](CNC(=O)c3cc(Br)c[nH]3)[C@@H](CNC(=O)c3cc(Br)c[nH]3)[C@@H]2c2c[nH]c(N)n2)c[nH]1.O=C(O)C(F)(F)F.O=C(O)C(F)(F)F [SCEPTRIN (TFA SALT)] ? Thanks!
16

The origin of these recorded values is ChEMBL document CHEMBL1144112.
